Kindly supply the reported pIC50 values for the records listed here.
- assay.system: α-noradrenergic receptor
- test.protocol: [3H] WB-4101 receptor binding displacement, rat cortical membranes (test C)
- condition.parameters: [3H] WB-4101 0.25 nM, 25° C., 15 minutes
pIC50 here is simply -log10 of the concentration when that concentration is written in mol/L.

Please list pIC50 recorded for the molecule Cc1cc(C)c(C2=C3CCN(C)CC3Sc3ccccc32)c(C)c1 (centres unmarked)
6.21

Input CN1CCC2=C(c3ccccc3)c3cc(Cl)ccc3SC2C1 (centres unmarked) , output reported pIC50.
6.45

For the molecule CN1CCC2=C(c3ccc(Cl)cc3)c3ccccc3SC2C1 (centres unmarked) , give its reported pIC50.
6.16

Respond only with pIC50 recorded for COc1ccc(C2=C3CCN(C)CC3Sc3ccccc32)cc1 (centres unmarked)
6.92

// fetch pIC50 given entry Cc1cccc(C)c1C1=C2CCN(C)CC2Sc2ccccc21 (centres unmarked)
6.21

====

- assay.system: neuroleptic receptors (frontal cortex membranes, major serotonergic component)
- test.protocol: [3H] spiroperidol receptor binding displacement on frontal cortex membranes (test A)
- condition.parameters: [3H] spiroperidol 0.19 nM, rat frontal cortex membranes, 37° C., 10 minutes
Where a name gives a salt, the structure may show the parent alone.
measured.property: IC50
Give the value; after it, write the unit.

Output IC50 of CN1CCC2=C(c3ccc(N(C)C)cc3)c3ccccc3SC2C1 (stereo not drawn)
112 nM

Could you please provide reported IC50 for CN1CCC2=C(c3ccccc3)c3ccccc3SC2C1.Cl (stereo not drawn) [Example 1, hydrochloride] ? Thanks!
250 nM

For the compound Cc1ccc(C2=C3CCN(C)CC3Sc3ccccc32)c(C)c1 (stereo not drawn) [Example 19, hydrochloride] , give its measured IC50 value.
32 nM

Give me measured IC50, please, for this compound: Cc1cccc(C2=C3CCN(C)CC3Sc3ccccc32)c1 (stereo not drawn)
251 nM

Supply measured IC50 of Cc1cc(C)c(C2=C3CCN(C)CC3Sc3ccccc32)c(C)c1 (stereo not drawn) in your reply.
308 nM

Name the recorded IC50 of the item Cc1cccc(C)c1C1=C2CCN(C)CC2Sc2ccccc21 (stereo not drawn) in your answer.
331 nM

Input Cc1ccc2c(c1)SC1CN(C)CCC1=C2c1ccccc1 (stereo not drawn) , output reported IC50.
708 nM

Give recorded IC50. Cc1ccccc1C1=C2CCN(C)CC2Sc2ccccc21 (stereo not drawn)
105 nM

Consider the compound Cc1cccc2c1SC1CN(C)CCC1=C2c1ccccc1 (stereo not drawn) and give its recorded IC50.
174 nM
